Molecular target: hGLP1 receptor (Homo sapiens)
Construct: expressed in transfected cells; host or cells: HEK (human embryonic kidney) cells co-expressing hGLP1 receptor and CRE-Luciferase
Sequence (P43220 24-463): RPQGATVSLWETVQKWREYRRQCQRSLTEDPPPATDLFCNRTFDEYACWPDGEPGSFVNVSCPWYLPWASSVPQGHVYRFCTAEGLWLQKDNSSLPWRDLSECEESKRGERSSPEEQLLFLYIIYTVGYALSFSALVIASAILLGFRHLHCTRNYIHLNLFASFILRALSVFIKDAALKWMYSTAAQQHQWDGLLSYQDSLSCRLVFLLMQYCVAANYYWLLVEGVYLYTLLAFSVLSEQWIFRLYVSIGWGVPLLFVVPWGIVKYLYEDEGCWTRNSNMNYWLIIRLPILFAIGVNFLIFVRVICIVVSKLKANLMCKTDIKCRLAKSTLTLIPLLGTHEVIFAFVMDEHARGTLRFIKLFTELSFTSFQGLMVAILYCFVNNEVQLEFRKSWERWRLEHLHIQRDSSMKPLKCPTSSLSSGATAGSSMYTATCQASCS
Assay: GLP-1 receptor agonism assay (HTRF cAMP, HEK cells co-expressing hGLP1 receptor and CRE-Luciferase)
Type: cell-based
Conditions: HEK293; Table 6 potency profile
Square brackets hold non-standard residues; d marks the D form. Peptide text beside a SMILES is read from it. Bip = N[C@@H](Cc1ccc(-c2ccccc2)cc1)C(=O)O; Phe(2-F) = N[C@@H](Cc1ccccc1F)C(=O)O; αMeF = C[C@](N)(Cc1ccccc1)C(=O)O; Aib = CC(C)(N)C(=O)O
Reported Endpoint: Emax (%)
A number alone suffices; assume %.

Please review the entries below; each comes with its answer.
C[C@@H](O)[C@H](NC(=O)CNC(=O)[C@H](CCC(=O)O)NC(=O)C(C)(C)NC(=O)[C@@H](N)Cc1c[nH]cn1)C(=O)N[C@@](C)(Cc1ccccc1)C(=O)N[C@H](C(=O)N[C@@H](CO)C(=O)N[C@@H](CC(=O)O)C(=O)N[C@@H](Cc1ccc(-c2ccccc2)cc1)C(=O)N[C@@H](Cc1ccc(-c2ccccc2)cc1)C(N)=O)[C@@H](C)O [RXL-3020] (H-H[Aib]EGT[αMeF]TSD[Bip][Bip]-NH2) ... 108
C[C@H](NC(=O)CNC(=O)[C@H](CCC(=O)O)NC(=O)C(C)(C)NC(=O)[C@@H](N)Cc1c[nH]cn1)C(=O)N[C@@H](Cc1ccccc1F)C(=O)N[C@H](C(=O)N[C@@H](CO)C(=O)N[C@@H](CC(=O)O)C(=O)N[C@@H](Cc1ccc(-c2ccccc2)cc1)C(=O)N[C@@H](Cc1ccc(-c2ccccc2)cc1)C(N)=O)[C@@H](C)O [RXL-3004] (H-H[Aib]EGA[Phe(2-F)]TSD[Bip][Bip]-NH2) ... 108

Now consider the entry below.
QUERY: Data request, read-out Emax, for C[C@H](NC(=O)[C@H](CC(=O)O)NC(=O)[C@H](CO)NC(=O)[C@@H](NC(=O)[C@H](Cc1ccccc1F)NC(=O)[C@@H](NC(=O)CNC(=O)[C@H](CCC(=O)O)NC(=O)C(C)(C)NC(=O)[C@@H](N)Cc1c[nH]cn1)[C@@H](C)O)[C@@H](C)O)C(=O)N[C@@H](Cc1ccc(-c2ccccc2)cc1)C(N)=O [RXL-3008] (H-H[Aib]EGT[Phe(2-F)]TSDA[Bip]-NH2)
RESULT: 43.6

====

The following compounds are listed with their measured Emax values.
Target: hGLP1 receptor (Homo sapiens)
Construct: expressed in transfected cells; host or cells: HEK (human embryonic kidney) cells co-expressing hGLP1 receptor and CRE-Luciferase
Assay: GLP-1 receptor agonism assay (HTRF cAMP, HEK cells co-expressing hGLP1 receptor and CRE-Luciferase)
Type: cell-based
Settings: HEK293; Table 6 potency profile
Square brackets hold non-standard residues; d marks the D form. Peptide text beside a SMILES is read from it. Bip = N[C@@H](Cc1ccc(-c2ccccc2)cc1)C(=O)O; αMePhe(2-F) = C[C@](N)(Cc1ccccc1F)C(=O)O; Aib = CC(C)(N)C(=O)O

QUERY: Data request, read-out Emax, for C[C@@H](O)[C@H](NC(=O)CNC(=O)[C@H](CCC(=O)O)NC(=O)C(C)(C)NC(=O)[C@@H](N)Cc1c[nH]cn1)C(=O)N[C@@](C)(Cc1ccccc1F)C(=O)NC(C)(C)C(=O)N[C@@H](CO)C(=O)N[C@@H](CC(=O)O)C(=O)N[C@@H](Cc1ccc(-c2ccccc2)cc1)C(=O)N[C@@H](Cc1ccc(-c2ccccc2)cc1)C(N)=O [RXL-3034] (H-H[Aib]EGT[αMePhe(2-F)][Aib]SD[Bip][Bip]-NH2)
RESULT: 106%
